- Test system: KM12 colon
- assay-notes: NCI-60 one-dose screen, 48 h
- study-conditions: 10 µM unless noted
- Protocol: Growth inhibition of the KM12 human tumor cell line is measured as a screen for anti-cancer activity. Cells are grown in 96 well plates and exposed to the test compound for 48 hours. Compounds are tested at a single concentration, which is 10^-5 M for most compounds. The reported endpoint is percent growth (GI% or GIPRCNT), where numbers from 0 - 100% represent growth inhibition, and numbers from -100% - 0 represent cell death. For example, a value of 40 represents 60% growth inhibition. […]
About 83,000 compounds went through this panel and 20% of them were active in at least one assay; those are over-represented in the sample as a whole. Calls of active or inactive are those of the source. How the source made its calls: active means growth percent below 10; inactive means the rest.
# output must be one of active, inactive

Problem: Which outcome was entered for the compound "COc1cccc(-c2nc3sccn3c2-c2ccnc(NCCNS(=O)(=O)c3cccc(F)c3)c2)c1" in this test?
Result: inactive

Problem: Which outcome was entered for the compound O=C(NC(Cc1nnc2n(Cc3ccccc3)c(=O)c3c4c(sc3n12)CCCC4)c1ccc(Cl)cc1)c1ccccc1 (stereo not given) in this test?
Result: inactive

Problem: Which outcome was entered for the compound "NC1=NCc2nc3ccccc3c(=O)n2C1" in this test?
Result: inactive

Problem: Which outcome was entered for the compound "O=C1N=c2cc3c(cc2=C/C1=C/c1sc(=S)n(CCc2ccc(O)cc2)c1O)OCCO3" in this test?
Result: inactive

Problem: Which outcome was entered for the compound "Cc1cc(NCCCCNc2ccnc3cc(Cl)ccc23)nc(Nc2ccc(C(=O)N3CCCCC3)cc2)n1" in this test?
Result: inactive
